molecular target: thrombin (Homo sapiens); construct: consists of two polypeptide chains of 36 (light chain) and 259 amino acid; experiment: Thrombin inhibition screen of crude macrocycle reactions (residual thrombin activity, fluorogenic substrate Z-Gly-Gly-Arg-AMC); type: biochemical; details: 10 µM macrocycle concentration; crude reactions, Library 1a-l; scaffold AA1-AA2-AA3 combined with 1-16 or '-'
Numbered stars: 1 amine (or outer) side, 2 acyl side, 3 side chain; on linkers, the order of the positions; unused ones are H or OH. Bridge positions count the residues as written; N and C are the ends. Square brackets hold non-standard residues; d marks the D form. Peptide text beside a SMILES is read from it. * marks the point of attachment. Nicotinoyl(6-OMe) = COc1ccc(C(=O)*)cn1; Cysteamide = C(CS[*:3])N[*:1]; Orn = NCCC[C@H](N)C(=O)O; Bz = O=C(c1ccccc1)*; βAla = NCCC(=O)O; Mpa = O=C(O)CCS
Quantity: percent residual thrombin activity (%)
Use % as the unit, but write only the number.

Inquiry: Find percent residual thrombin activity (thrombin (Homo sapiens)) for the entry COc1ccc(C(=O)NCCCC[C@@H]2NC(=O)CCSSCCNC(=O)c3ccc(cc3)CNC(=O)[C@H](CO)NC2=O)cn1 [D1-S-B3/10]
Reply text: 111.469

Inquiry: Now the same for CC(C)C[C@@H]1NC(=O)CCNC(=O)CCSSCCNC(=O)[C@H](CCCNC(=O)c2ccccc2)NC1=O [B2-L-D2/1] ([Mpa][βAla]L[Orn](Bz)-Cysteamide; disulfide 1-C)
Reply text: 106.68

Inquiry: Now the same for CC(C)CC(=O)NCCCC[C@@H]1NC(=O)CCSSCCNC(=O)[C@H](CO)NC(=O)c2ccc(cc2)CNC1=O [D1-B3-S/8]
Reply text: 103.332

Inquiry: Now the same for O=C1CCSSCCNC(=O)[C@H]2CCCN(C2)C(=O)[C@H](CCCCNC(=O)c2c[nH]c(=O)cn2)NC(=O)[C@H](Cc2ccc(O)cc2)N1 [Y-D1-B4/9]
Reply text: 103.469

Inquiry: Now the same for COc1ccc(C(=O)NCCCC[C@@H]2NC(=O)[C@@H](CO)NC(=O)[C@@H]3CCCN3C(=O)CCSSCCNC2=O)cn1 [B1-s-D1/10] ([Mpa]P[dS]K(Nicotinoyl(6-OMe))-Cysteamide; disulfide 1-C)
Reply text: 110.704

Inquiry: Now the same for CC(C)C[C@@H]1NC(=O)CCSSCCNC(=O)[C@H](CCCNC(=O)COc2ccccc2)NC(=O)[C@H]2CCCN(C2)C1=O [L-B4-D2/13]
Reply text: 110.982

Data origin: paper PMC9250534
